Tested on: Lefty1
Assay: Lefty1 binders on small-molecule microarrays, primary screen, biochemical, small-molecule microarray, 635/667 nm fluorescence (AID 1139)
Settings: small-molecule microarray binding, fluorescence 635/667; higher = more signal

MOLECULE	composite z-score
COCCOC(=O)N1C(=O)[C@@]2(c3cc(C#Cc4ccc(OC)cc4)ccc31)[C@H](C(=O)NC[C@H](O)c1ccccc1)[C@H]1C(=O)O[C@H](c3ccccc3)[C@H](c3ccccc3)N1[C@@H]2c1ccc(OCCO)cc1	1.15
COC(=O)C1=CC(CCCO)=CC(C)N(Cc2cccc(OC(F)(F)F)c2)C=C1C(=O)OC (centres undefined)	-0.0105
COCC1=C2[C@@H](CCc3ccccc3)OB(O)C[C@@H]2[C@@H]2C(=O)N(C)C(=O)[C@@H]2C1	0.0961
C[C@]1(C(=O)O)c2ccccc2C(=O)N(Cc2ccc(OC(F)(F)F)cc2)[C@H]1c1ccc(CO)cc1	-0.685
COCCOC(=O)N1C(=O)[C@@]2(c3cc(C#Cc4ccc(OC)cc4)ccc31)[C@H](c1ccc(OCCO)cc1)N1[C@H](c3ccccc3)[C@H](c3ccccc3)OC(=O)[C@H]1[C@@H]2C(=O)Nc1nc2ccccc2s1	0.676
COc1ccc(C(O)C2C=CC3C(=O)N(c4ccccc4)C(=O)C3N2Nc2ccc(C(C)C)cc2)c2ccccc12 (centres undefined)	0.031
NC(=O)[C@H]1[C@@H]2C(=O)O[C@@H](c3ccccc3)[C@@H](c3ccccc3)N2[C@@H](c2ccc(O)cc2)[C@]12C(=O)Nc1ccc(C#CC3=CCCCC3)cc12	0.542
COC(=O)[C@@]1(Cc2ccccc2CN=[N+]=[N-])N=C(c2ccc(OCCCO)cc2)O[C@H]1c1ccccc1	0.143
CCCCCN1CC=CC23O[C@@H]4C=CCOC(=O)[C@@H]4[C@H]2C(=O)N(CCO)[C@@H]3C1=O (some centres undefined)	-0.306
CCOC(=O)C1=C[C@@H](C(C)(C)C)N(S(=O)(=O)c2ccc(C)cc2)[C@H]1c1ccccc1	0.523
COc1cc(NN2C(C(O)c3ccccc3)C=CC3C(=O)N(C)C(=O)C32)cc(OC)c1OC (centres undefined)	0.229
CC(C)CCC[C@@H](C)[C@H]1CC[C@@]2(C)C3=C(CC[C@]12C)[C@@]1(C)CC[C@H](OC(=O)c2ccccc2)C(C)(C)C1CC3 (some centres undefined)	0.591
COCCOC(=O)N1C(=O)[C@@]2(c3ccccc31)[C@H](c1ccccc1OCCO)N1[C@H](c3ccccc3)[C@H](c3ccccc3)OC(=O)[C@H]1[C@@H]2C(=O)N1CCCCCCC1	1.71
CCOC(=O)C1=C[C@@H](c2ccccc2)N(S(=O)(=O)c2ccc(C)cc2)[C@H]1c1ccccc1	0.543

----------
Assay: binders of probe aFST on microarray, primary screen, stem cell growth factor project, biochemical, small-molecule microarray, fluorescence 635/667 (AID 1086);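 note: score merges 667 nm fluorescence with signal-to-noise of each printed compound spot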
Settings: higher = more signal
// label = condition met if composite z-score is not less than 0.9, otherwise condition not met

COMPOUND	ASSIGNED_CATEGORY
CC1CC/C=C\[C@H]2OC34C=CCN(C(C)(C)C)C(=O)[C@H]3N(C(CO)C(C)C)C(=O)[C@@H]4C2C(=O)O1 (some centres undefined)	condition not met
O=C1N(CCS(=O)(=O)c2ccccc2)Cc2ccccc2[C@@H]2OC(c3ccc(OCCCO)cc3)=N[C@]12CCS(=O)(=O)c1ccccc1	condition met
C=CCC(OC(C)=O)[C@@H]1[C@@H](N(Cc2ccc(-c3ccccc3)cc2)C(=O)Cc2ccc(F)cc2)c2cc(OCCCO)ccc2N1C(=O)Cc1ccc2ccccc2c1 (some centres undefined)	condition not met
Cc1ccc(S[C@]2(C(=O)NC(C)C)CC(=O)N(Cc3ccccc3Cl)[C@@H]2c2ccc(CO)cc2)cc1	condition not met
C[C@]1(C(=O)O)c2ccccc2C(=O)N(Cc2ccc(OC(F)(F)F)cc2)[C@H]1c1ccc(CO)cc1	condition not met
CC(=O)NCCCC[C@@H]1NC(=O)[C@H]2C[C@@H](C(=O)NCCCCCNC(=O)CS)[C@@H](c3cccc(OCCO)c3)N2C1=O	condition not met
Cc1ccc(S[C@]2(C(=O)NCC(C)C)CC(=O)N(C3Cc4ccccc4C3)[C@@H]2c2ccc(CO)cc2I)cc1	condition met
CC(C)(C)OC(=O)CC[C@]1(C(=O)N2CCCCC2)COC(c2ccc(OCCCO)cc2)=N1	condition not met
C=C[C@@H](OC)[C@H](OC(=O)Nc1ccc(SC)cc1)c1ccc(OCCO)cc1	condition not met
CC(C)C(=C=CC[C@@H](O)c1cccc(OCCO)c1)C[C@@H](O)COCc1ccccc1	condition not met
COCCOC(=O)N1C(=O)[C@@]2(c3cc(C#CCC(C(=O)OC)C(=O)OC)ccc31)[C@H](C(=O)NC[C@H](O)c1ccccc1)[C@H]1C(=O)O[C@H](c3ccccc3)[C@H](c3ccccc3)N1[C@@H]2c1ccc(OCCO)cc1	condition not met
C=C(CCCC)C(=O)CC[C@@H](OC(=O)c1cccnc1)c1ccc(OCCO)cc1	condition not met
COC(=O)[C@@]1(Cc2ccc(OC)cc2)[C@H]2c3cc(C(=O)N4CCCC4)n(Cc4cc(C)n(C)n4)c3C[C@H]2CN1C(=O)c1ccccc1	condition not met
COC(=O)[C@@]1(Cc2ccc(OC)cc2)[C@H]2c3cc(C(=O)N4CCCC4)n(Cc4ccc(S(C)(=O)=O)cc4)c3C[C@H]2CN1C(=O)c1ccccc1	condition met
C=C[C@@H](C)[C@@H](OC(=O)Nc1ccc(SC)cc1)c1ccc(OCCO)cc1	condition not met
COc1ccc([Si](C)(C)[C@@H]2[C@@H](CC(=O)N3Cc4ccccc4C[C@H]3CO)O[C@]3(C(=O)N(c4ccccc4)c4ccccc43)[C@H]2C)cc1	condition met
CCOC(=O)C1=C[C@@H](C(C)(C)C)N(S(=O)(=O)c2ccc(C)cc2)[C@H]1c1ccccc1	condition met
COc1cc(NN2C(C(O)c3ccc(I)cc3)C=CC3C(=O)N(c4ccccc4)C(=O)C32)cc(OC)c1OC (centres undefined)	condition met
NCCCCCNC(=O)[C@H]1C[C@H]2C(=O)N[C@@H](Cc3ccccc3)C(=O)N2[C@H]1c1ccc(O)cc1	condition met
O=C1C2C=CC(C(O)c3ccco3)N(Nc3ccccc3)C2C(=O)N1c1ccccc1 (centres undefined)	condition not met
CN1C(=O)C2C=CC(C(O)c3cc(C(F)(F)F)cc(C(F)(F)F)c3)N(Nc3ccccc3)C2C1=O (centres undefined)	condition not met
COCCOC(=O)N1C(=O)[C@@]2(c3cc(C#CC4=CCCCC4)ccc31)[C@H](c1ccc(O)cc1)N1[C@H](c3ccccc3)[C@H](c3ccccc3)OC(=O)[C@H]1[C@@H]2C(=O)NC[C@H](O)c1ccccc1	condition not met
C=CCNC(=O)[C@H]1[C@@H]2C(=O)O[C@@H](c3ccccc3)[C@@H](c3ccccc3)N2[C@@H](c2ccc(OCCO)cc2)[C@]12C(=O)N(C(=O)OCCOC)c1ccc(C#Cc3ccc(OC)cc3)cc12	condition not met
C=C(CCCC)C(=O)CC[C@H](OC(C)=O)c1ccc(OCCO)cc1	condition not met
O=C1[C@@]23C=C(Br)[C@H](C[C@@H]2COC3)[C@@]12CO2	condition not met
COC(=O)C(CC#Cc1ccc2c(c1)[C@]1(C(=O)N2)[C@H](c2ccc(OCCO)cc2)N2[C@H](c3ccccc3)[C@H](c3ccccc3)OC(=O)[C@H]2[C@@H]1C(=O)N1CCN(c2ncccn2)CC1)C(=O)OC	condition not met
C[C@]1(C(=O)NCCN2CCOCC2)c2ccccc2C(=O)N(Cc2cc(F)cc(C(F)(F)F)c2)[C@H]1c1ccc(CO)cc1	condition met
C=C(/C(=C/C[C@@H](OC(C)=O)c1ccc(OCCO)cc1)c1cc(C(=O)OC)ccc1OC)C(C)C	condition not met

----------
Assay: modulators of S6 phosphorylation in cells, primary screen, cell-based, A549, cytoblot, luminescence, serum-stimulated (AID 1158);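 note: serum-stimulated A549 lung adenocarcinoma cells; signal is phosphorylated S6 detected by cytoblot immunostaining with HRP secondary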
Details: A549 phospho-S6 cytoblot, 5 h, higher = more signal

COMPOUND	z-score
C=C(C(=O)CC[C@@H](OC(=O)c1ccccc1-c1ccccc1C(=O)O)c1ccccc1OCCO)C(C)C	0.689
[N-]=[N+]=NCc1ccccc1C[C@]1(C(=O)N2CCOCC2)COC(c2ccc(OCCCO)cc2)=N1	0.338
CCCCCCCCCCC(O)C1C=CC2C(=O)N(C)C(=O)C2N1Nc1cc(OC)c(OC)c(OC)c1 (stereo not drawn)	-0.635
CCCCCCCCCCC(O)C1C=CC2C(=O)N(c3ccccc3)C(=O)C2N1Nc1ccccc1F (stereo not drawn)	-0.827
CC(C)C(CO)N1C(=O)[C@@H]2[C@H]3C(=O)OCC=C[C@H]3OC23C=CCN(C(C)(C)C)C(=O)[C@@H]13 (stereo partly drawn)	-0.154
COCCOC(=O)N1C(=O)[C@@]2(c3cc(C#CC4(O)CCCCCC4)ccc31)[C@H](c1ccc(OCCO)cc1)N1[C@H](c3ccccc3)[C@H](c3ccccc3)OC(=O)[C@H]1[C@@H]2C(=O)Nc1nc2ccccc2s1	-0.652
[N-]=[N+]=Nc1ccccc1C[C@@]1(C(=O)O)N=C(c2ccc(OCCCO)cc2)O[C@@H]1c1ccccc1N=[N+]=[N-]	0.664
[N-]=[N+]=NC[C@H](Cc1ccccc1)NC(=O)c1ccccc1	-0.282
